measuredOn: Bet BRD4 full length bromo-domain protein (Homo sapiens, UniProt O60885)
experimentSummary: Bet bromodomain TR-FRET assay (displacement of acetyl histone peptide)
Format: binding
cond: Bet BRD4 full length bromodomain protein, 300 nM acetyl histone peptide substrate, read-out: IC50
assayEndpoint: IC50

Below are worked cases with known answers.
1) O=C(NC1CCCNC1)c1cc(NS(=O)(=O)c2ccc(F)cc2F)cc2c1NC(=O)C21CCC1 (stereo not drawn) [Compound 65]; < 0.6 µM
2) O=C1C=C(Nc2cc(NS(=O)(=O)c3ccc(F)cc3F)cc3c2NC(=O)C32CCC2)CCN1 [Compound 76]; < 0.6 µM
3) COc1ccccc1S(=O)(=O)Nc1cc(OCC2CCN(C)CC2)c2c(c1)C1(CCC1)C(=O)N2 [Compound 146]; < 0.6 µM
4) COc1ccccc1S(=O)(=O)Nc1cc(OC(C)c2ccccn2)c2c(c1)C1(CCC1)C(=O)N2 (single isomer, unassigned) [Compound 150]; 0.6 to 1 µM
5) COc1ccccc1S(=O)(=O)Nc1cc(C(F)c2ccccc2)c2c(c1)C1(CCC1)C(=O)N2 (stereo not drawn) [Compound 125]; < 0.6 µM
6) CC(C)(C)OC(=O)N1CCC(Nc2cc(NS(=O)(=O)c3ccc(F)cc3F)cc3c2NC(=O)C32CCC2)C(F)C1 (stereo not drawn) [Compound 37]; > 1 µM

Q: Give recorded IC50. CC(Oc1cc(NS(=O)(=O)c2ccc(Cl)cc2F)cc2c1NC(=O)C21CCC1)c1ccccn1 (single isomer, unassigned) [Compound 155]
Result: 0.6 to 1 µM

Q: Give recorded IC50. COc1ccccc1S(=O)(=O)Nc1cc(OCc2ccc(F)cn2)c2c(c1)C1(CCC1)C(=O)N2 [Compound 148]
Result: < 0.6 µM

Q: Give recorded IC50. COc1ccccc1NC(=O)Nc1cc(C2CC2)c2c(c1)C1(CCC1)C(=O)N2 [Compound 121]
Result: < 0.6 µM

* * *

measuredOn: Bet BRD4 full length bromo-domain protein (Homo sapiens, UniProt O60885)
experimentSummary: Bet bromodomain TR-FRET assay (displacement of acetyl histone peptide)
Format: binding
cond: Bet BRD4 full length bromodomain protein, 300 nM acetyl histone peptide substrate, read-out: IC50
pIC50: −log10 of the molar value.
Examples of compounds with documented pIC50 follow.

1. COc1ccccc1S(=O)(=O)Nc1cc(Oc2cc[nH]c(=O)c2)c2c(c1)C1(CCC1)C(=O)N2; > 6.22

Turning to the following compound.
Q: Give recorded pIC50. O=C(NC1CCCCC1)c1cc(NS(=O)(=O)c2ccc(F)cc2F)cc2c1NC(=O)C21CCC1
Result: 6.00 to 6.22

* * *

measuredOn: Bet BRD4 full length bromo-domain protein (Homo sapiens)
experimentSummary: Bet bromodomain TR-FRET assay (displacement of acetyl histone peptide)
Assay type: binding
cond: Bet BRD4 full length bromodomain protein, 300 nM acetyl histone peptide substrate, read-out: IC50
assayEndpoint: IC50

1. O=C(O)c1cc(NS(=O)(=O)c2ccc(F)cc2F)cc2c1NC(=O)C21CCC1; 600 to 1000 nM
2. O=C1Nc2c(NC3CCc4cc(F)ccc43)cc(NS(=O)(=O)c3ccc(F)cc3F)cc2C12CCC2 (stereo not shown); > 1000 nM
3. COc1ccccc1S(=O)(=O)Nc1cc(OC2CCN(C)CC2)c2c(c1Br)C1(CCC1)C(=O)N2; > 1000 nM
4. COc1ccccc1S(=O)(=O)Nc1cc(NC2CCCN(C)C2)c2c(c1)C1(CCC1)C(=O)N2 (stereo not shown); < 600 nM

Q: Give recorded IC50. CC(C)(O)C1CCN(C(=O)c2cc(NS(=O)(=O)c3ccc(F)cc3F)cc3c2NC(=O)C32CCC2)CC1
Result: > 1000 nM

Q: Give recorded IC50. O=C(Nc1cc(NS(=O)(=O)c2ccc(F)cc2F)cc2c1NC(=O)C21CCC1)C1CCOCC1
Result: > 1000 nM

Q: Give recorded IC50. COc1cccc(F)c1S(=O)(=O)Nc1cc(OC2CCN(C)CC2)c2c(c1)C1(CCC1)C(=O)N2
Result: < 600 nM
